tissue to tissue ratio at 24 h reference
# measurement.notes: Biodistribution of 177Lu-labeled αMSH analogues in mice bearing B16F10 mouse melanoma
# Type: in vivo, C57BL/6J mice
# condition.label: mouse, tumour/kidney, iv, total radioactivity; 24 h p.i., C57BL/6J mice, B16F10 melanoma; read-out: Tumour/kidney
Hey, just send me the number, nothing else.

Some compounds with known tissue to tissue ratio at 24 h results, for comparison:
CCCC[C@H](NC(=O)CN1CCC(NC(=O)CN2CCN(CC(=O)O)CCN(CC(=O)O)CCN(CC(=O)O)CC2)CC1)C(=O)N[C@H]1CC(=O)NCCCC[C@@H](C(N)=O)N(C)C(=O)[C@H](Cc2c[nH]c3ccccc23)NC(=O)[C@H](CCCNC(=N)N)N(C)C(=O)[C@@H](Cc2ccccc2)NC(=O)[C@H](Cc2c[nH]cn2)NC1=O [^177Lu-labeled CCZ01106, metal not drawn]    3.08
CCCC[C@H](NC(=O)CN1CCC(NC(=O)[C@H](CCCCNC(=O)CN2CCN(CC(=O)O)CCN(CC(=O)O)CCN(CC(=O)O)CC2)NC(=O)[C@H](CCC(=O)O)NC(=O)CCCc2ccc(I)cc2)CC1)C(=O)N[C@H]1CC(=O)NCCCC[C@@H](C(N)=O)N(C)C(=O)[C@H](Cc2c[nH]c3ccccc23)NC(=O)[C@H](CCCNC(=N)N)N(C)C(=O)[C@@H](Cc2ccccc2)NC(=O)[C@H](Cc2c[nH]cn2)NC1=O [^177Lu-labeled CCZ01118, metal not drawn]    2.91

// recorded tissue to tissue ratio at 24 h for CCCC[C@H](NC(=O)CN1CCC(NC(=O)[C@H](CCCCNC(=O)CN2CCN(CC(=O)O)CCN(CC(=O)O)CCN(CC(=O)O)CC2)NC(=O)[C@H](CCC(=O)O)NC(=O)CCCc2ccc(I)cc2)CC1)C(=O)N[C@H]1CC(=O)NCCCC[C@@H](C(N)=O)N(C)C(=O)[C@H](Cc2c[nH]c3ccccc23)N(C)C(=O)[C@H](CCCNC(=N)N)N(C)C(=O)[C@@H](Cc2ccccc2)NC(=O)[C@H](Cc2c[nH]cn2)N(C)C1=O [^177Lu-labeled CCZ01088, metal not drawn] : 0.68

----------
# measurement.notes: Biodistribution of 177Lu-labeled αMSH analogues in mice bearing SK-MEL-1 human melanoma
# condition.label: male, NRG (NOD.Cg-Rag1tm1Mom Il2rgtm1Wjl/SzJ), mouse, pancreas, total radioactivity
tissue uptake at 24 h reference
# unit: %ID/g | format: bare number

CCCC[C@H](NC(=O)CN1CCC(NC(=O)[C@H](CCCCNC(=O)CN2CCN(CC(=O)O)CCN(CC(=O)O)CCN(CC(=O)O)CC2)NC(=O)CNC(=O)CCCc2ccc(I)cc2)CC1)C(=O)N[C@H]1CC(=O)NCCCC[C@@H](C(N)=O)N(C)C(=O)[C@H](Cc2c[nH]c3ccccc23)NC(=O)[C@H](CCCNC(=N)N)N(C)C(=O)[C@@H](Cc2ccccc2)NC(=O)[C@H](Cc2c[nH]cn2)NC1=O [^177Lu-labeled CCZ01148, metal not drawn]    2.27
CCCC[C@H](NC(=O)CN1CCC(NC(=O)[C@H](CCCCNC(=O)CN2CCN(CC(=O)O)CCN(CC(=O)O)CCN(CC(=O)O)CC2)NC(=O)CNC(=O)CCCc2ccc(-c3ccc(C)cc3)cc2)CC1)C(=O)N[C@H]1CC(=O)NCCCC[C@@H](C(N)=O)N(C)C(=O)[C@H](Cc2c[nH]c3ccccc23)NC(=O)[C@H](CCCNC(=N)N)N(C)C(=O)[C@@H](Cc2ccccc2)NC(=O)[C@H](Cc2c[nH]cn2)NC1=O [^177Lu-labeled CCZ01158, metal not drawn]    0.27

// recorded tissue uptake at 24 h for CCCC[C@H](NC(=O)CN1CCC(NC(=O)[C@H](CCCCNC(=O)CN2CCN(CC(=O)O)CCN(CC(=O)O)CCN(CC(=O)O)CC2)NC(=O)[C@H](CCC(=O)O)NC(=O)CCCc2ccc(I)cc2)CC1)C(=O)N[C@H]1CC(=O)NCCCC[C@@H](C(N)=O)N(C)C(=O)[C@H](Cc2c[nH]c3ccccc23)NC(=O)[C@H](CCCNC(=N)N)N(C)C(=O)[C@@H](Cc2ccccc2)NC(=O)[C@H](Cc2c[nH]cn2)NC1=O [^177Lu-labeled CCZ01118, metal not drawn] : 0.1
